Hey, just so you know, these numbers are from ChEMBL document CHEMBL1137547.

Test system: Cryptococcus neoformans
assay comment: Antifungal activity against Cryptococcus neoformans after 72 hrs
Format: functional
Answer each item with its documented MIC.

### Prompt Identify MIC associated with the compound CCCCNC1CCc2cccc(OC)c2C1 (stereo not drawn)
### Response > 64 µM

### Prompt Identify MIC associated with the compound CCCCCCCCCCCCCCNC1CCc2ccc(OC)cc2C1 (stereo not drawn)
### Response 16 µM

### Prompt Identify MIC associated with the compound COc1ccc(NC2CCc3ccc(OC)cc3C2)cc1 (stereo not drawn)
### Response > 64 µM

### Prompt Identify MIC associated with the compound NC1CCc2cc(O)ccc2C1 (stereo not drawn)
### Response > 64 µM

### Prompt Identify MIC associated with the compound COc1ccc(NC2CCc3ccc(O)cc3C2)cc1 (stereo not drawn)
### Response > 64 µM

### Prompt Identify MIC associated with the compound CCCCCCCCCCCCCCNC1CCc2ccc(O)cc2C1 (stereo not drawn)
### Response 8 µM

### Prompt Identify MIC associated with the compound CCCCCCCCCCNC1CCc2ccc(O)cc2C1 (stereo not drawn)
### Response 1 µM

### Prompt Identify MIC associated with the compound COc1ccc(NC2CCc3c(cccc3OC)C2)cc1 (stereo not drawn)
### Response > 64 µM

### Prompt Identify MIC associated with the compound CCCCCCCCCCCCCCCCCCNC1CCc2c(O)cccc2C1 (stereo not drawn)
### Response > 64 µM

### Prompt Identify MIC associated with the compound CCCCCCCCCNC1CCc2cccc(O)c2C1 (stereo not drawn)
### Response 8 µM

### Prompt Identify MIC associated with the compound Oc1ccc2c(c1)CC(NCc1ccccc1)CC2 (stereo not drawn)
### Response > 64 µM

### Prompt Identify MIC associated with the compound CCCCCCCCCCCCCCCCCCNC1CCc2cc(OC)ccc2C1 (stereo not drawn)
### Response > 64 µM

### Prompt Identify MIC associated with the compound COc1ccc2c(c1)CCC(Nc1ccc(Cl)cc1)C2 (stereo not drawn)
### Response > 64 µM

### Prompt Identify MIC associated with the compound COc1ccc(NC2CCc3cc(OC)ccc3C2)cc1 (stereo not drawn)
### Response > 64 µM

### Prompt Identify MIC associated with the compound CCCCCCCCNC1CCc2ccc(OC)cc2C1 (stereo not drawn)
### Response 16 µM

### Prompt Identify MIC associated with the compound CCCCCCCCCNC1CCc2ccc(OC)cc2C1 (stereo not drawn)
### Response 4 µM

### Prompt Identify MIC associated with the compound Oc1cccc2c1CCC(NCc1ccccc1)C2 (stereo not drawn)
### Response > 64 µM

### Prompt Identify MIC associated with the compound COc1ccc2c(c1)CC(NCc1ccccc1)CC2 (stereo not drawn)
### Response > 64 µM

### Prompt Identify MIC associated with the compound CCCCCCCCCCCCNC1CCc2ccc(O)cc2C1 (stereo not drawn)
### Response 32 µM

### Prompt Identify MIC associated with the compound COc1cccc2c1CC(Nc1ccc(Cl)cc1)CC2 (stereo not drawn)
### Response > 64 µM

### Prompt Identify MIC associated with the compound CCCCCCCCCCCCCCCCCCNC1CCc2cc(O)ccc2C1 (stereo not drawn)
### Response > 64 µM

### Prompt Identify MIC associated with the compound COc1cccc2c1CC(Nc1ccccc1)CC2 (stereo not drawn)
### Response > 64 µM

### Prompt Identify MIC associated with the compound CCCCCCCCCCCCCCCCCCNC1CCc2cccc(OC)c2C1 (stereo not drawn)
### Response 64 µM

### Prompt Identify MIC associated with the compound CCCCNC1CCc2cc(O)ccc2C1 (stereo not drawn)
### Response > 64 µM

### Prompt Identify MIC associated with the compound Oc1cccc2c1CCC(Nc1ccccc1)C2 (stereo not drawn)
### Response > 64 µM

### Prompt Identify MIC associated with the compound CCCCCCCCCCNC1CCc2cccc(O)c2C1 (stereo not drawn)
### Response 16 µM

### Prompt Identify MIC associated with the compound CCCCCCCCCCCCNC1CCc2c(cccc2OC)C1 (stereo not drawn)
### Response 8 µM

### Prompt Identify MIC associated with the compound COc1ccc2c(c1)CCC(NCc1ccccc1)C2 (stereo not drawn)
### Response > 64 µM
